target: BRD4 BD2 (Homo sapiens); experiment: AlphaScreen binding assay, BRD4 Bromodomain 2
// IC50 lookup, one value per entry

> print(dat)
                                   compound  observed.value
1  CC(=O)N1c2ccc(-c3ccc(S(C)(=O)=O)cc3)cc2N(C(=O)Nc2cccc(C)c2)C[C@@H]1C [Example I-971]    50 to 500 nM
2  CC(=O)N1c2ccccc2N(C(=O)c2cc(C)n(C)n2)C[C@@H]1C [Example I-755]        > 500 nM
3  CC(=O)N1c2ccc(-c3ccc(S(C)(=O)=O)cc3)cc2N(C(=O)Nc2cccc(Cl)c2)C[C@@H]1C [Example I-969]        > 500 nM

Next:
Query: Find the recorded IC50 belonging to CC(=O)N1c2ccc(-c3cnn(C4CC4)c3)cc2N(c2nn(C)c3ncccc23)C[C@@H]1C [Example I-184] and report it.
Result: 50 to 500 nM

---

biological target: BRD4 BD1 (Homo sapiens, UniProt O60885); test: AlphaScreen binding assay, BRD4 Bromodomain 1
property label: IC50

> print(dat)
                                   compound  observed.value
1  COC(=O)N1c2ccc(-c3cnn(C[C@H]4CCNC4)c3)cc2N(C(=O)OC(C)C)C[C@@H]1C [Example I-692]     0.1 to 1 µM
2  CC(=O)N1c2ccc(-c3ccc4c(c3)OCO4)cc2N(C(=O)c2ccco2)C[C@@H]1C [Example I-806]      1 to 10 µM
3  CC(=O)N1c2ccc(-c3ccc(NS(C)(=O)=O)cc3)cc2N(C(=O)Oc2ccccn2)C[C@@H]1C [Example I-1316]     0.1 to 1 µM
4  CCOC(=O)N1C[C@H](C)N(C(C)=O)c2ccc(-c3ccc(S(=O)(=O)NC)cc3)cc21 [Example I-1121]      1 to 10 µM
5  CCCn1cc(-c2cnc3c(c2)N(C(=O)c2ccco2)C[C@H](C)N3C(C)=O)cn1 [Example I-273]      1 to 10 µM

Now, please, on to the next compound.
Query: # IC50 lookup, item COC(=O)N1c2ccc(-c3cnn(C4CC4)c3)cc2N(C(=O)C2CC2)C[C@@H]1C [Example I-42]
Result: 0.1 to 1 µM

---

Measured pIC50 by item
target: BRD4 BD1 (Homo sapiens, UniProt O60885); assay: AlphaScreen binding assay, BRD4 Bromodomain 1
pIC50: −log10 of the molar value.

# count of solved cases: 3
> print(dat)
                                   compound  observed.value
1  CCOC(=O)N1C[C@H](C)N(C(C)=O)c2ccc(-c3ccc4c(c3)CCCN4S(C)(=O)=O)cc21 [Example I-1159]    6.00 to 7.00
2  CC(=O)N1c2ccc(-c3cnn(CC(C)C)c3)cc2N(C(=O)C2CC2)CC1C (stereo not drawn) [Example I-670]    6.00 to 7.00
3  CC(=O)N1c2ccc(-c3cnn(C4CCNC(=O)C4)c3)cc2N(C(=O)OC2CCC2)C[C@@H]1C (stereo partly drawn) [Example I-175]          > 7.00

Query: Form field: reported pIC50 of CC(=O)N1c2ccc(-c3ccc(S(C)(=O)=O)cc3)nc2N(C(=O)OC(C)C)C[C@@H]1C [Example I-254]
Result: 5.00 to 6.00

Query: Input COC(=O)N1c2ccc(-c3ccc(C(=O)N4CCN(S(C)(=O)=O)CC4)cc3)cc2N(C(=O)OC(C)C)C[C@@H]1C [Example I-573]
Result: 6.00 to 7.00

Query: What would you report for CC(=O)N1c2ccc(-c3cnn(CC#N)c3)cc2N(C(=O)C2CC2)C[C@@H]1C [Example I-675] ?
Result: 5.00 to 6.00

Query: Next record, please: CC(=O)N1c2ccc(-c3cnn(CC(F)F)c3)cc2N(C(=O)C2CC2)C[C@@H]1C [Example I-651]
Result: 6.00 to 7.00

Query: What do you get for COC(=O)N1c2ccc(-c3ccc(S(=O)(=O)CCN)cc3)cc2N(C(=O)C2CC2)C[C@@H]1C [Example I-461] ?
Result: 5.00 to 6.00

Query: Then what about the compound CC(=O)N1c2ccc(-c3cnn(CCF)c3)cc2N(C(=O)OC(C)C)C[C@@H]1C [Example I-666] ?
Result: 6.00 to 7.00
